target_system: human ether-à-go-go-related gene (hERG) potassium channel (human, UniProt Q12809);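 note: peak tail current of the secondary pulse compared with the same well before compound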
Sequence (Q12809 whole entry, looked up): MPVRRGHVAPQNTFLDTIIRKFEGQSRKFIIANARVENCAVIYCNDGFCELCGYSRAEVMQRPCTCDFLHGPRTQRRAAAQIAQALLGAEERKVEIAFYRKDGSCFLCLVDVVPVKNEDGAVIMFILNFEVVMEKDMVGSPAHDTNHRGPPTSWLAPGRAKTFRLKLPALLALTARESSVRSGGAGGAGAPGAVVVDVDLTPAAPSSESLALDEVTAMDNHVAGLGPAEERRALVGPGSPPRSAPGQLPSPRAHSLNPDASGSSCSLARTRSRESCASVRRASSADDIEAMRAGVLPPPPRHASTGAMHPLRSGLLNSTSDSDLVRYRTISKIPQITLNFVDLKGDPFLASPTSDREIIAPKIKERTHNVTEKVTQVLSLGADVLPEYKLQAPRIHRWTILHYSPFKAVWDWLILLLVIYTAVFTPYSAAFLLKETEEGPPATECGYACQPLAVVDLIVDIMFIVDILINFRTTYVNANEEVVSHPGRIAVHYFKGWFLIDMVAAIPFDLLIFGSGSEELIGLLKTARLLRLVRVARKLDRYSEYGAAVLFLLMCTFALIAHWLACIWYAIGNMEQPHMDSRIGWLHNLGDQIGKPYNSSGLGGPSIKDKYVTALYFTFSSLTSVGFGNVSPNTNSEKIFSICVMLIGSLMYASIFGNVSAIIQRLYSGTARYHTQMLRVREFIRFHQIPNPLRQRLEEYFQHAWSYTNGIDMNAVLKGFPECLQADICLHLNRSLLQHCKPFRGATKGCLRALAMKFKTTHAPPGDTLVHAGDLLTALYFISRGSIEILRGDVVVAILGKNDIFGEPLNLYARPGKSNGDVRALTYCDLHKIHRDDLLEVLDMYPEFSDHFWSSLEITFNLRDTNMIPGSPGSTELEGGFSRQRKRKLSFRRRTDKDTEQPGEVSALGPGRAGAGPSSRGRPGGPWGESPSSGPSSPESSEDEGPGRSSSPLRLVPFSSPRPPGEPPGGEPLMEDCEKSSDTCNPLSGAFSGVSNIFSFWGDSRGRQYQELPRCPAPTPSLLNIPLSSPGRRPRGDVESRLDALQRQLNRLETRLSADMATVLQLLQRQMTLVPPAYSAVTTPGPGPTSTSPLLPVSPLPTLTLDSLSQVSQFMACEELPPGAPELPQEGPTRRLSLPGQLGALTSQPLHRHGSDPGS
procedure_text: primary screen, population patch clamp on CHO cells stably expressing hERG; higher = less effect of the substance
Out of some 310,000 compounds screened, about 14,000 (4.5%) showed an effect of 50% or more. Effects have a minus sign here. The entries come from a sample that favours strong results as a whole.
Each entry gets criterion not met if its hERG current change (%, negative = inhibition) at 10uM stays under -20%, and criterion met if its hERG current change (%, negative = inhibition) at 10uM is -20% or above.

compound	class_name
O=C(CCN1C(=O)c2ccccc2C1=O)Nc1sc2c(c1C(=O)NCc1ccco1)CCCC2	criterion met
O=S(=O)(c1cccs1)N1CCN(c2ccc(F)cc2)CC1	criterion not met
COc1ccc(OC)c(NC(=O)CCc2nnc3ccc(NCc4ccco4)nn23)c1	criterion met
CCS(=O)(=O)N1CCC(C(=O)N2CCC3(CC2)OCCO3)CC1	criterion met
COc1cccc(C(C(=O)NCC2CCCO2)N(C(=O)Cn2nnc3ccccc32)c2ccc(NC(C)=O)cc2)c1OC (centres unmarked)	criterion met
